These measurements were taken from PubChem BioAssay.

Test: OD615 S. cerevisiae growth inhibition, permissive medium, pilot counter-assay, permissive growth control for S. cerevisiae lifespan shortening project (AID 705)
Details: OD615, 24 h, at 10 µM, stronger effect = higher value
measured.property: growth inhibition (%)
API: value field is a number in %; no unit string.

q: Quick one: growth inhibition for Cc1ccc(C)c(S(=O)(=O)Nc2ccc(O)cc2)c1 ?
a: -9.59

q: Ok, now COc1ccc(CN2CCN(c3ncccn3)CC2)c(OC)c1
a: -0.81

q: Note, next up: N#Cc1nc(-c2ccccc2Cl)oc1NCC1CCCO1 (centres undefined)
a: -2.88

q: Next entry: COc1ccccc1OCCNC(=O)c1ccc(S(=O)(=O)N(C)C)cc1
a: -3.92

q: # repeat for CC1CC(C)CN(S(=O)(=O)c2cccc3cccnc23)C1 (centres undefined)
a: -4.23

q: And what about the compound CCCOc1ccc(S(=O)(=O)NCc2ccc(OC)cc2)cc1 ?
a: -0.685

q: Cn1c(=O)oc2cc(S(=O)(=O)NCc3ccco3)ccc21 , same question.
a: 2.12

q: Item: CCOc1ccccc1NC(=O)N1CCCC1C(=O)Nc1ccc(-n2cnnn2)c(C)c1 (centres undefined)
a: -11.3

q: Same question, CCn1ccc(C(=O)Nc2ccc(Cl)cn2)n1 this time
a: -9.65

q: Query CCc1nnc(NC(=O)CSc2nccn2-c2cccc(C)c2C)s1 next
a: 2.46

q: Now give it for O=C(COc1ccc2c3c(c(=O)oc2c1)CCC3)c1ccc2c(c1)OCO2 too.
a: -8.44

q: Check FC(F)(F)C12CC(c3ccccc3)=NCCN1CCN2 (centres undefined) too.
a: -4.15

q: Also, CCCOC(=O)c1ccc(OCC(O)Cn2c(C)nc3ccccc32)cc1 (centres undefined) please.
a: -11.1

q: What do you have for CC1CC(C(O)c2ccccn2)C(=O)C(C(O)c2ccccn2)C1 (centres undefined) ?
a: 9.67

q: Next up: COc1ccc(C2C(C(=O)c3ccco3)=C(O)C(=O)N2CCc2ccccc2)cc1OC (centres undefined)
a: -12.1

q: Another: CCC(C)N1CC23C=CC(O2)C(C(=O)OC)C3C1=O (centres undefined)
a: 0.035

q: For Clc1ccc(Sc2oc(/C=N/n3cnnc3)cc2Br)cc1 then?
a: -0.475

q: Param item: O=c1[nH]c2ccc(S(=O)(=O)NCc3ccccn3)cc2s1
a: -13.7

q: Also check CC1CCCN(C(c2ccccc2)c2sc3ncnn3c2O)C1 (centres undefined)
a: -7.14

q: Another compound to check: CC1=CCC2C(=O)N(c3ccc(C)c(Br)c3)C(=O)C2C1 (centres undefined)
a: 5.96

q: And CC1=C(C(=O)OCc2ccc3c(c2)OCO3)C(c2ccc(Cl)cc2)NC(=O)N1 (centres undefined) ?
a: -4.12

q: What do you have for Cc1cc(N2CCN(S(=O)(=O)c3ccc(Cl)cc3)CC2)c2ccccc2n1 ?
a: -3.2

q: What about this compound? COc1ccc(N2C(=O)C3CCCN3C2c2ccc(C)cc2)cc1 (centres undefined)
a: -2.01

q: Entry to check: CCCCS(=O)CC(CS(=O)CCCC)OC(=O)c1ccc(C)cc1 (centres undefined)
a: -10.6

* * *

Record form. Attribute: differential viability (reversal). Fill in for each entry.
Assay: reversal of MRP1-mediated doxorubicin resistance, pilot screen, H69AR cells, doxorubicin co-treatment (AID 601)
Conditions: H69AR cells + 2 uM doxorubicin, CellTiter-Glo, 72 h; at 10 µM; stronger effect = higher value
Express it in %; write the number only.

q: Quick one: differential viability (reversal) for Nc1c(C(=O)NCCc2ccccc2)nnn1Cc1ccccc1 ?
a: 11.2

q: Follow-up item: CCCCCCC(C)n1[nH]c(=O)c2c(C)cc(=O)[nH]c21 (stereo unspecified)
a: -4.37

q: Next molecule: CS(=O)(=O)Nc1ccc([N+](=O)[O-])cc1Oc1ccccc1
a: 10.3

q: Another molecule: C=CCn1c(SCC(=O)NC23CC4CC(CC(C4)C2)C3)nc(O)cc1=O
a: 0.68

q: Now this one: CC(=O)Nc1ccc(Cl)cc1C(=O)O
a: 10.4

q: Also need Cc1ccc(-n2nc(C(=O)N3CCN(C)CC3)c3c4ccccc4n(C)c3c2=O)cc1 , thanks.
a: 2.81

q: Can you check Cc1cc(C(=O)NCc2cccnc2)n(-c2ccccc2)n1 next?
a: 14.4

q: Also, COc1ccc(OC)c(C(=O)c2nc3c(n2O)CCCCC3)c1 please.
a: -4.37

q: Another: Cc1occc1-c1nnc(SCC(=O)NCC2CCCO2)n1C (stereo unspecified)
a: 2.64

q: Now the molecule COc1ccccc1NC(=O)C1=C(C)Nc2nc(CCCO)nn2C1c1cccnc1 (stereo unspecified)
a: 11

q: Same again, this time with CCOC(=O)N1CCN(CC(O)COc2ccccc2C(C)CC)CC1 (stereo unspecified)
a: 1.52
